Data origin: PubChem BioAssay (EPA / NIEHS)

- Read-out: Pyruvate Dehydrogenase Kinase 4 (PDK4), PDK4 (gene 5166)
- TEST_NAME: LTEA_HepaRG_PDK4: Life Technologies and Expression Analysis (LTEA) Assay for Pyruvate Dehydrogenase Kinase 4 (PDK4) using HepaRG (AID 2283525)
- STUDY_CONDITIONS: mRNA level, 48 h; actives raise or lower the signal
Active and inactive are the calls of the source. How the source made its calls: active means hit-call score of the fitted dose curve at least 0.9, where 1 is the maximum; inactive means score below 0.9.
Choose one outcome from this list and give only that: 1 (yes) (active), 0 (no) (inactive)

Answered cases to consult:
CCCCN1C(=O)[C@@H]([C@H](O)C2CCCCC2)NC(=O)C12CCN(Cc1ccc(Oc3ccc(C(=O)O)cc3)cc1)CC2 | 1 (yes)
OC[C@H]1O[C@@H]2O[C@H]3[C@H](O)[C@@H](O)[C@@H](O[C@H]4[C@H](O)[C@@H](O)[C@@H](O[C@H]5[C@H](O)[C@@H](O)[C@@H](O[C@H]6[C@H](O)[C@@H](O)[C@@H](O[C@H]7[C@H](O)[C@@H](O)[C@@H](O[C@H]1[C@H](O)[C@H]2O)O[C@@H]7CO)O[C@@H]6CO)O[C@@H]5CO)O[C@@H]4CO)O[C@@H]3CO | 0 (no)
CCCC(CCC)C(=O)O | 0 (no)
CCCCCCCC/C=C\CCCCCCCC(=O)OC[C@@H](O)[C@H]1OC[C@H](O)[C@H]1O | 0 (no)
c1ccc2c(c1)-c1cccc3c1c-2cc1ccccc13 | 1 (yes)

INPUT: Dear all, I need the recorded test outcome for `CC(C)c1nnc2ccc(-c3ocnc3-c3cc(F)ccc3F)cn12` , thank you.
OUTPUT: 0 (no)

INPUT: Please let me know the test result on file for `O=C(NO)C1(NS(=O)(=O)c2ccc(Oc3ccc(F)cc3)cc2)CCOCC1` .
OUTPUT: 1 (yes)
